- Read-out: Interleukin-8 (IL8), CXCL8 (gene 3576)
- procedure-summary: BSK_CASM3C_IL8: BioMAP Diversity Plus: CASM3C Assay for Interleukin-8 (IL8) Biomarker Activity (AID 2283042);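 further: IL-8 protein level quantified by ELISA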
- run-parameters: primary human coronary artery smooth muscle cells; actives raise or lower the signal
Activity calls are given as the source filed them. How the source made its calls: active means hit-call score of the fitted dose curve at least 0.9, where 1 is the maximum; inactive means score below 0.9.
Would you mind answering with one of these outcomes? active, inactive

**Q:** For CCCCOC(=O)CC(CC(=O)OCCCC)(OC(C)=O)C(=O)OCCCC , what call appears in the results of this test?
**A:** inactive

***
**Q:** For CCCCCCCCCCCC[N+](C)(C)C , what call appears in the results of this test?
**A:** active

**Q:** Then this compound: CC(C)(c1cc(Br)c(O)c(Br)c1)c1cc(Br)c(O)c(Br)c1
**A:** inactive

**Q:** Then this compound: O=C(OCCCCCCOC(=O)c1ccccc1)c1ccccc1
**A:** inactive

**Q:** Then this compound: O=C1c2ccccc2C(=O)N1CCc1noc(-c2ccc(CN3CCCCCC3)s2)n1
**A:** inactive

**Q:** Then this compound: CC(O)CC(C)(C)O (stereo unspecified)
**A:** inactive

----------
- Read-out: Tumor necrosis factor (Homo sapiens)
- procedure-summary: BSK_LPS_TNFa: BioMAP Diversity Plus: LPS Assay for Tumour Necrosis Factor alpha (TNFa) Biomarker Activity (AID 2283085);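 on AC50: TNFa protein level quantified by ELISA in the co-culture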
- run-parameters: primary human HUVEC with PBMC; actives raise or lower the signal
Calls of active or inactive are those of the source. How the source made its calls: active means hit-call score of the fitted dose curve at least 0.9, where 1 is the maximum; inactive means score below 0.9.
recorded-endpoint: AC50

Consider the reported AC50 for these molecules:
**Q:** What does the record list as AC50 for Cc1ccc(C(C)C)cc1 ?
**A:** inactive

**Q:** Then this molecule: O=C(Nc1ccc(Cl)cc1)Nc1ccc(Cl)c(Cl)c1
**A:** 3.23 µM (active)

**Q:** Then this molecule: O=C(O)Cc1cc(I)c(Oc2ccc(O)c(I)c2)c(I)c1
**A:** 13 µM (active)

**Q:** Then this molecule: O=CCCCC=O
**A:** 32.7 µM (active)

**Q:** Then this molecule: c1ccc(C[n+]2cccc3ccccc32)cc1
**A:** inactive

Would you be so kind as to report AC50 for each listed record?
1. O=C=NCCCCCCN=C=O
2. O=C1O[C@H]([C@@H](O)CO)C(O)=C1O

**A:**
["inactive", "inactive"]

----------
- Read-out: Thrombomodulin, THBD (gene 7056)
- procedure-summary: BSK_CASM3C_Thrombomodulin: BioMAP Diversity Plus: CASM3C Assay for Thrombomodulin Biomarker Activity (AID 2283051);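 further: thrombomodulin protein level measured by ELISA 24 h after dosing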
- run-parameters: primary human coronary artery smooth muscle cells; actives raise or lower the signal
The source made the active and inactive calls. The calls were made as follows: active = hit-call score of the fitted dose curve at least 0.9, where 1 is the maximum; inactive = score below 0.9.
Would you mind answering with one of these outcomes? active, inactive

The examples below pair each entry with its known result.
**Q:** For O=C(Nc1ccc(Cl)cc1)Nc1ccc(Cl)c(Cl)c1 , what call appears in the results of this test?
**A:** inactive

**Q:** Then this molecule: O=c1[nH]sc2ccccc12
**A:** active

**Q:** Then this molecule: CN(C)c1ccc(C(=C2C=CC(=[N+](C)C)C=C2)c2ccc(N(C)C)cc2)cc1
**A:** inactive

**Q:** Then this molecule: CC(C)(C)c1csc(-c2cc3cc(OCc4ccccc4CC(=O)O)ccc3o2)n1
**A:** inactive

**Q:** Then this molecule: CCCCCCCCCCCO
**A:** inactive

**Q:** Then this molecule: CC1(C)NC(=O)N(c2ccc([N+](=O)[O-])c(C(F)(F)F)c2)C1=O
**A:** inactive

**Q:** Then this molecule: NC(=O)c1nc(-c2cccc(-c3cc(F)ccc3OCC(F)(F)C(F)(F)F)c2)n[nH]1
**A:** inactive

**Q:** Then this molecule: CCCC(=O)OCCC(C)C
**A:** inactive

**Q:** Then this molecule: COCC(C)OCC(C)OCC(C)O (stereo unspecified)
**A:** inactive

**Q:** Then this molecule: CC(C)(c1cc(Br)c(O)c(Br)c1)c1cc(Br)c(O)c(Br)c1
**A:** active

***
**Q:** For CCCCCCCCN(C)CCCCCCCC , what call appears in the results of this test?
**A:** inactive

**Q:** Then this molecule: Cc1oc2c(NC(=O)c3c(Cl)cccc3Cl)cccc2c1C(C)(C)O
**A:** active

**Q:** Then this molecule: CCN(Cc1cccnc1)C(=O)c1cccc(Cl)c1[C@]1(C)C(=O)N(Cc2ccc(OC)cc2OC)c2ccc(Cl)cc21
**A:** inactive

**Q:** Then this molecule: CO[C@H]1/C=C/O[C@@]2(C)Oc3c(C)c(O)c4c(O)c(c(/C=N/N5CCN(C)CC5)c(O)c4c3C2=O)NC(=O)/C(C)=C\C=C\[C@H](C)[C@H](O)[C@@H](C)[C@@H](O)[C@@H](C)[C@H](OC(C)=O)[C@@H]1C
**A:** inactive

**Q:** Then this molecule: CC(C)(O)c1ccc(CNC(=O)c2cccnc2Oc2ccc3nonc3c2)cc1
**A:** inactive

**Q:** Then this molecule: CCCOC(=O)c1cc(O)c(O)c(O)c1
**A:** inactive
